- Tested Target: Luciferin 4-monooxygenase (Photinus pyralis)
- Procedure Summary: qHTS of Nrf2 Activators: Hit Validation in Secondary FLuc Assay; also: nearly all actives have a fitted effect of over 65% in size
- Experimental Parameters: firefly luciferase inhibition counter-screen, luminescence; series mostly up to 57.5 µM
The whole screen tested about 1,100 compounds, of which about 390 (35%) were called active. Inconclusive results (about 30%) are left out. Calls follow the shape of the dose curve; as a rule, active = well fitted inhibition curve with a large enough effect; inconclusive = small, poorly fitted or top-dose-only effect; inactive = flat fitted curve, though single readings scatter. The list shows a part of the results.
Returns: one label drawn from active, inactive

Q) Call for entry Cn1c(SCC(=O)N/N=C/C=C\c2ccccc2[N+](=O)[O-])nc2ccccc21 :
A) inactive

Q) Short answer needed: outcome of this test for O=C(Nc1ccc(F)cc1F)c1cc(-c2ccco2)nc2ccccc12 ?
A) active

Q) For this molecule, state the assay outcome: CCOC(=O)c1ccccc1N/C=C/C(=O)c1ccccc1
A) active

***
Q) Lab log entry: N#C/C(=C\C=C\c1ccccc1[N+](=O)[O-])C(=O)NC1CCCCC1 — outcome as called in the assay?
A) inactive

Q) Would you mind telling me which call this test gave COc1ccc(Cl)cc1C(=O)O/N=C(\N)c1ccc(Cl)cc1 ?
A) active

Q) // param item: Cc1cccc(-c2nnc(-c3cccc4ccccc34)o2)c1 ; yields the recorded call
A) active

Q) Which outcome was entered for the molecule O=C1C2C3C=CC(C4CC34)C2C(=O)N1/N=C/c1ccc([N+](=O)[O-])o1 (stereo not drawn) in this test?
A) inactive

Q) Please indicate how the test categorized Cn1c(NCC2CCCCC2)nc2cc(-c3ccsc3)sc2c1=O .
A) inactive

====

- Tested Target: Luciferin 4-monooxygenase (Photinus pyralis) (UniProt P08659)
- Procedure Summary: qHTS of Nrf2 Activators: Hit Validation in Secondary FLuc Assay; also: nearly all actives have a fitted effect of over 65% in size
- Experimental Parameters: firefly luciferase inhibition counter-screen, luminescence; series mostly up to 57.5 µM
Screen size: about 1,100 compounds; about 390 (35%) were called active. About 30% were inconclusive and are not listed. The call rests on the fitted dose curve; in most records, active means well fitted inhibition curve with a large enough effect; inconclusive means small, poorly fitted or top-dose-only effect; inactive means flat fitted curve, though single readings scatter. The list shows a part of the results.
API: response.call in 1 (active), -1 (inactive)

Examples from the recorded data:
Q) What was the test verdict on O=[N+]([O-])c1cc(-c2nc(-c3ccccc3)no2)ccc1NCc1cccnc1 ?
A) 1

Q) What did the test return for CC1=NC(=O)C(N=Nc2cccc(O)c2)N1c1ccccc1 (stereo unspecified) ?
A) 1

Q) What did this assay record as the result for COCCNc1ccc(-c2nc(-c3ccco3)no2)cc1[N+](=O)[O-] ?
A) 1

Q) Query: recorded result category for COc1cc2c(cc1Cl)/C(=C\CCN(C)C)c1ccccc1S2 in this test
A) -1

Continuing:
Q) Fill in: this test's call for CC(=O)N(/N=C1\Sc2ccccc2C1=O)c1ccccc1 is ___
A) 1

Q) Each compound tested received a call. Report the one for CCNc1ccc(-c2nc(-c3ccco3)no2)cc1[N+](=O)[O-] .
A) 1

Q) # outcome recorded in this test, key = CN1CCN(c2sc(S(C)(=O)=O)nc2S(=O)(=O)c2ccc(Cl)cc2)CC1
A) -1

Q) Could you please tell me the result logged for CC(C)(C)c1csc(NC(=O)CCS(=O)(=O)c2ccc(F)cc2)n1 in this assay?
A) -1

Q) Please state the recorded outcome for this compound: CCCNC(=O)c1ccc(S(=O)(=O)c2ccc(OC)cc2)c([N+](=O)[O-])c1
A) -1

Q) What did the test return for Cc1ccc(S(=O)(=O)c2nc(S(C)(=O)=O)sc2N2CCN(C)CC2)cc1 ?
A) -1

Q) Could you please tell me the result logged for O=[N+]([O-])c1cnc(Nc2ccc(Cl)cn2)c([N+](=O)[O-])c1 in this assay?
A) -1
